# maps each entry to its log10 of IC50
molecular target: ERK5 (Homo sapiens, UniProt Q13164); construct: MEF2-luciferase reporter; test: Inhibition of Cellular ERK5 Activity (cell-based assay, MEF2 luciferase reporter in SN12C cells); details: renal cancer cell line SN12C, doxycycline-induced MEKSDD, mean where repeated
Sequence (Q13164 whole entry): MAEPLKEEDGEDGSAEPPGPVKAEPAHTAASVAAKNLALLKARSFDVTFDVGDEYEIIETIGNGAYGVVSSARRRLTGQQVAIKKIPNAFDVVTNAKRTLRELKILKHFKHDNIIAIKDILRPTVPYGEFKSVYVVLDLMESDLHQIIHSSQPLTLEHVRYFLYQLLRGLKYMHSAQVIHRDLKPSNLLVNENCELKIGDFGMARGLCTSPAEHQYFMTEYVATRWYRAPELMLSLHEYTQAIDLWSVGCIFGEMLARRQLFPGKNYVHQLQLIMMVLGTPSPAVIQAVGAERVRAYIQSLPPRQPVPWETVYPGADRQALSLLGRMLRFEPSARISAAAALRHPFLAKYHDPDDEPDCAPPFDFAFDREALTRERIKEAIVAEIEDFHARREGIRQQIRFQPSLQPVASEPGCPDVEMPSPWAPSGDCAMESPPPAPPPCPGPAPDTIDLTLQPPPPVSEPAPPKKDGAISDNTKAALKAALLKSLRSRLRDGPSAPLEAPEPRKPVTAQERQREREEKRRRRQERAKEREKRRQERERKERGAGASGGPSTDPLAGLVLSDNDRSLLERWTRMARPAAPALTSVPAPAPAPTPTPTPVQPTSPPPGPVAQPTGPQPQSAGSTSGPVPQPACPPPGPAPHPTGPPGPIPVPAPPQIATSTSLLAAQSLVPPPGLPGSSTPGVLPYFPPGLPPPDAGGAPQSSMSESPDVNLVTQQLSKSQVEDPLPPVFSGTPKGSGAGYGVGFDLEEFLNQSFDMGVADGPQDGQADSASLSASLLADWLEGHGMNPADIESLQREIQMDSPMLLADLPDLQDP
A difference of one corresponds to tenfold IC50; all values are log10 with IC50 in nM.

Example compounds with recorded log10 of IC50:
compound	assay-target	numeric-readout
Nc1cc(OC(F)(F)F)ccc1C(=O)N1CCC(n2c(=O)[nH]c3ncc(N4CCO[C@@H](CO)C4)cc32)CC1	ERK5 (Homo sapiens, UniProt Q13164)	3.12
O=C(c1ccc(OC(F)(F)F)cc1)N1CCC(n2c(=O)[nH]c3ncc([C@H]4CC[C@H](O)CC4)cc32)CC1	ERK5 (Homo sapiens, UniProt Q13164)	2.31
Nc1cc(OC(F)(F)F)ccc1C(=O)N1CCC(n2c(=O)[nH]c3ncc(C4CCOC4)cc32)CC1 (racemic)	ERK5 (Homo sapiens, UniProt Q13164)	2.14

// log10 of IC50 lookup, compound = Nc1cc(OC(F)(F)F)ccc1C(=O)N1CCC(n2c(=O)[nH]c3ncc(CC4CCOC4)cc32)CC1 (racemic) , result: 2.26

// log10 of IC50 lookup, compound = O=C1CCCC(c2cnc3[nH]c(=O)n(C4CCN(C(=O)c5ccc(OC(F)(F)F)cc5)CC4)c3c2)CC1 (racemic) , result: 2.40

// log10 of IC50 lookup, compound = O=C(c1ccc(OC(F)(F)F)cc1)N1CCC(n2c(=O)[nH]c3ncc(C4CCOC4)cc32)CC1 (racemic) , result: 2.45

// log10 of IC50 lookup, compound = CN1CCC(Oc2cnc3[nH]c(=O)n(C4CCN(C(=O)c5ccc(OC(F)(F)F)cc5N)CC4)c3c2)C1 (racemic) [Example 6] , result: 2.18

// log10 of IC50 lookup, compound = Nc1cc(OC(F)(F)F)ccc1C(=O)N1CCC(n2c(=O)[nH]c3ncc(C4CCCCO4)cc32)CC1 (racemic) , result: 2.73
